- targetOrSystem: Tyrosine-protein phosphatase non-receptor type 1 (Homo sapiens)
- Sequence (whole entry): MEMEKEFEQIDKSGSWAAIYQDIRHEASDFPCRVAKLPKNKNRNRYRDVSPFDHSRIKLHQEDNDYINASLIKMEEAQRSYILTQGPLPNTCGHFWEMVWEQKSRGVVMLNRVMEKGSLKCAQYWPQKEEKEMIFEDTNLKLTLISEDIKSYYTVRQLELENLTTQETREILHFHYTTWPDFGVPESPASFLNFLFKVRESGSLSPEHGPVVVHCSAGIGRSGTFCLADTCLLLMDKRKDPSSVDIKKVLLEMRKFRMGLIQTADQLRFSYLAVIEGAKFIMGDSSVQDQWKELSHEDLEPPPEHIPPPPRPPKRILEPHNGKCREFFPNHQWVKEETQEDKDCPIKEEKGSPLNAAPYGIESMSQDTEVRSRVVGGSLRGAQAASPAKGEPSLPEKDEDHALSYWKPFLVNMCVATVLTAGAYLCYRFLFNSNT
- assayText: Inhibition of GST-tagged human recombinant PTB1B using pNPP as substrate at 20 ug/ml after 3 mins
# inhibition annotations
Write down the numeric answer in % and omit the unit.

In the examples that follow, each entry is paired with its recorded inhibition.
> print(dat)
                                  smilestext                            targetorsystem  measvalue
 1  Oc1cc(Cc2cc(O)c(O)c(Br)c2Br)c(Br)c(Br)c1O  Tyrosine-protein phosphatase non-receptor type 1 (Homo sapiens)       91.3
 2     COc1cc(Br)c(Cc2cc(OC)c(OC)cc2Br)cc1OC  Tyrosine-protein phosphatase non-receptor type 1 (Homo sapiens)       33.6
 3  O=C(c1cc(O)c(O)c(Br)c1Br)c1c(Br)c(O)c(O)c(Br)c1Br  Tyrosine-protein phosphatase non-receptor type 1 (Homo sapiens)       95.1
 4  COc1cc(C(=O)c2cc(OC)c(OC)c(Br)c2Br)c(Br)c(Br)c1OC  Tyrosine-protein phosphatase non-receptor type 1 (Homo sapiens)       21.4
 5         O=C(c1ccc(O)c(O)c1)c1ccc(O)c(O)c1  Tyrosine-protein phosphatase non-receptor type 1 (Homo sapiens)       13.5
 6       COc1ccc(C(=O)c2ccc(OC)c(OC)c2)cc1OC  Tyrosine-protein phosphatase non-receptor type 1 (Homo sapiens)       2.72
 7  Oc1c(O)c(Br)c(Cc2c(Br)c(O)c(O)c(Br)c2Br)c(Br)c1Br  Tyrosine-protein phosphatase non-receptor type 1 (Homo sapiens)        101
 8             Oc1ccc(Cc2cc(O)c(O)cc2Br)cc1O  Tyrosine-protein phosphatase non-receptor type 1 (Homo sapiens)       12.2
 9  COc1cc(Br)c(C(=O)c2cc(OC)c(OC)cc2Br)cc1OC  Tyrosine-protein phosphatase non-receptor type 1 (Homo sapiens)       33.6
10  COc1cc(C(=O)c2c(Br)c(Br)c(OC)c(OC)c2Br)c(Br)c(Br)c1OC  Tyrosine-protein phosphatase non-receptor type 1 (Homo sapiens)       69.8

inhibition for "Oc1cc(Br)c(Cc2cc(O)c(O)c(Br)c2Br)cc1O" ?
40.5

inhibition for "O=C(c1cc(O)c(O)cc1Br)c1cc(O)c(O)cc1Br" ?
8.74

inhibition for "Oc1cc(Cc2c(Br)c(O)c(O)c(Br)c2Br)c(Br)c(Br)c1O" ?
92.3

inhibition for "O=C(c1ccc(O)c(O)c1)c1cc(O)c(O)cc1Br" ?
11.2

inhibition for "O=C(c1c(Br)c(O)c(O)c(Br)c1Br)c1c(Br)c(O)c(O)c(Br)c1Br" ?
78.6

inhibition for "COc1ccc(Cc2ccc(OC)c(OC)c2)cc1OC" ?
38.4

inhibition for "O=C(c1cc(O)c(O)cc1Br)c1cc(O)c(O)c(Br)c1Br" ?
42.7
